Below, each entry is listed alongside its reported pIC50.
# TARGET_UNDER_TEST: angiotensin II receptor (Oryctolagus cuniculus)
# Construct: The aorta was cut into 3~4 mm to form ring samples; from tissue; host or cells: isolated aorta rings of New Zealand White rabbits
# Sequence (P34976 whole entry): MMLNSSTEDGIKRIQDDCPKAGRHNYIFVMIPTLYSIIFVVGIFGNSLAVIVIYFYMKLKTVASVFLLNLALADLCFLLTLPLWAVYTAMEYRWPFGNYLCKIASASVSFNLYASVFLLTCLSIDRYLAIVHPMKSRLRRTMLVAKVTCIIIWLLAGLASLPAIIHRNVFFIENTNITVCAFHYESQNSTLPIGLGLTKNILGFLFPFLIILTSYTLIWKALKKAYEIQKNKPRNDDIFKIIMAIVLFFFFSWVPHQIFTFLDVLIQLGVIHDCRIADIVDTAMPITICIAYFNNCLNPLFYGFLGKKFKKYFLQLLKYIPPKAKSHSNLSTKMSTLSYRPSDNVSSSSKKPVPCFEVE
# PROCEDURE_TEXT: inhibition of angiotensin II induced contraction of isolated rabbit aorta rings
# Format: cell-based, New Zealand White rabbit
# STATED_CONDITIONS: test compound incubated 20 minutes, 37° C., pH 7.4, read-out: IC50 (concentration being required to inhibit angiotensin II induced contraction by 50%)
API: returns pIC50 as number; meaning -log10 of concentration in mol/L.

>>> observed_result("CCCCc1nc(C)c(CCCC(=O)N(CC)CC)c(=O)n1Cc1ccc(-c2ccccc2-c2nn[nH]n2)cc1")
8.53
>>> observed_result("CCCCc1nc(C)c(CC(=O)N2CCN(C(C)=O)CC2)c(=O)n1Cc1ccc(-c2ccccc2-c2nn[nH]n2)cc1")
8.66

Now look at this entry.
The observed pIC50 for CCCCc1nc(C)c(CC(=O)N2CCCC2)c(=O)n1Cc1ccc(-c2ccccc2-c2nnn[nH]2)cc1 when tested with angiotensin II receptor (Oryctolagus cuniculus) stands at 8.56
